- Experiment Description: label from the status in PepcDB records;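 further: failed if final PepcDB status was selected cloned or expressed and not failed if soluble or beyond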
Recorded Metric: protein production

[[record]]
seq = "QSNVVIMQDPGGGYGDALRKVMYDPFEKETGIKVVTVQEARSGPRIKAQAEAGKAQWDLTFIFDQETKLLGDCCLADIDYSKLSESAHKTLAAMPDNLKRKKGVALQVIGVGLVYNKDKFKGDKAPQTWADFWDVKKFPGRRCMPAWPRFTFEAALMADGVTKDKLYPIDMDRALKKLKEIKPHVVKWWTTAAQPPQLILDGEADMCLAYTGSMSKLALEGAPIDLTFNQGFVYYDFFSIPKGAPNYDNALKLLSWRLDPKRAAQLTSTFPVALPSKVVFDAATDKNIARYWANNPENVAKAIEWSPDFWGAPSPAGNSTNEEYGQEKLNAMLAQ"
recorded_value = "not failed"

[[record]]
seq = "MNQEFFMLSQAMVEHLNEQINLEFFSSNLYLQMSAWCEDKGFDGAAEFLRAHAVEEMQHMQRLFTYVSETGALPILGAIAAPRHDFASLGEVFRETYQHEQKITQQINKLAHVAFTSQDYSTFNFLQWYVAEQHEEEKLFKGILDKLELVGEDGKALFFIDKDLAALAKKGSSSVMDAPAE"
recorded_value = "not failed"


---

- Experiment Description: label from the status in PepcDB records
Recorded Metric: protein production

[[record]]
seq = "MATDTTVQLRAGWQGRFYEDFAVGDVYKHPYGRTVTETDNVWFTNLTMNANPMHFNAAYASGTEFDERLVNGLFVIALSVGMSVVDVSANATANLGYDDIQHHAPVFHGDTLFAESEVLSKRESESRPHVGMVTTELRTYTQDGELVLSLERTPMVRKRGAADPLEHHHHHH"
recorded_value = "failed"

[[record]]
seq = "MIDTHIHSDTRGLEDLELMAMCLDGVITLAHDPFEMKNIKVWEAHVEKLLINELERAKKVGLNLFICVGMHPRAIPPEIDEALDKIKSYINYNSRVVGIGEIGLEKATKEEKEVFIKQLLLAEELNMPAVVHTPRRNKEEVTKIILDEISTLNLKNRDIVIEHCNKETTKWVLDEEFYVGLTIQPGKLTPLEAVEIVKEYKDFADKILLNSDCSSNASDVLAVPRTVLKMKINGIEKDVIYKVAHKNAVNLFGLDI"
recorded_value = "failed"

[[record]]
seq = "MCSSDSLQLHNVFVYGSFQDPDVINVMLDRTPEIVSATLPGFQRFRLKGRLYPCIVPSEKGEVHGKVLMGVTSDELENLDAVEGNEYERVTVGIVREDNSEKMAVKTYMWINKADPDMFGEWNFEEWKRLHKKKFIETFKKIMECKKKPQGQGNDDISHVLREDQ"
recorded_value = "not failed"

[[record]]
seq = "AKAPQKKHKVLLQQFNTGDERAQKRQPIRGSDEVLFKVYCMDHTYTTIRVPVATSVKEVISAVADKLGSGEGLIIVKMSSGGEKVVLKPNDVSVFTTLTINGRLFACPREQFDSLTPLPEQEGPTVGTVGTFELMSSKDLAYQMTIYDWELFNCVHELELIYHTFGRHNFKKTTANLDLFLRRFNEIQFWVVTEICLCSQLSKRVQLLKKFIKIAAHCKEYKNLNSFFAIVMGLSNVAVSRLALTWEKLPSKFKKFYAEFESLMDPSRNHRAYRLTVAKLEPPLIPFMPLLIKDMTFTHEGNKTFIDNLVNFEKMRMIANTARTVRYYRSQPFNPDAAQANKNHQDVRSYVRQLNVIDNQRTLSQMSHRLEPRRP"
recorded_value = "failed"

[[record]]
seq = "HEETECPLRLAVCQHCDLELSILKLKEHEDYCGARTELCGNCGRNVLVKDLKTHPEVCGREG"
recorded_value = "not failed"

[[record]]
seq = "MLTDPFFYLVAIPAVILLGLTKGGFAGIGVVAVPMMTLAVSPVMAASIILPILLVQDVVSVWSFRKTWDKAILVLMLPAAAVGIFLGWALAALVEEAAVELAVGAISVVFALQRLWAEHALRAADSIEAGPARPWLGVLCGATAGFTSQIAHAGGPPFQIYVLPRGLPRDVFIGTSAIFFGVVNWMKVPAYLALGQLTPQALATAGVLLPLAIASTWAGVWLVRRVPAEGFYKVIYVLLVLVGGKLMFDGARGLLT"
recorded_value = "failed"

[[record]]
seq = "ANFADSGKSLPPSMTSVPVTPVAAHTSSTPLTDIAADTTANDAPAIAAEFGQPDWPEEFGRKITWLATQRMQAAELKLHPAHLGPIEISLQLSDDQRLTAQFISHHPAVREAIEANLPRLREIMAENGITLADTSVSADT"
recorded_value = "not failed"

[[record]]
seq = "MEKNLLRSALKIFEKKDLSLLAYSGRSIFESKDSGLKPVVELFKRFDNLEGSLVIDKMVGKAAASFLLKMKPDHIHAKVISKPALKLMNEYGQSFSYDEKIPFVLGKDGKSMCPFEKLVLEMDDPEEIIRIVLSKFTSL"
recorded_value = "not failed"

[[record]]
seq = "MITDCCPGFGSVAKYIAVSMLEASFDVASMAKTSTKVFILEVMGRHAGWIAAAGGLASNEDHEVPIIILFPEVTFDQEKFLAKTDHYVKEYGYCTVVVSEGVKGTDGKFLSDQGLRDAFGHAQLGGVAPVIANIVKNGLGLEHHHHHH"
recorded_value = "not failed"

[[record]]
seq = "MKIKKNMIKGILLTTIVSFLAKIAADYLPSLGGEAIAMLLGILIGNTVFKDEKWMPGIKWAEKFPIEIGIALMGLTVTLRTISSLKIQGVIFILFQMMATILFVLWVGRRFIKVPSESAMLMASGNAVCGSSAIAAVAPAIRASDDQRRTAVATVSLSGVVLLFLLPVIGPNIFHGNNLLIGALIGGTVQSVGQVVGTASLVNQAVVTYATLFKMLRVILLSVVVFVFARFADRTRADEIKTDSKKVAVPWFVIVFIIFVFINSFFNLSNTVNTGAKSIANFFGIVNLAGIGLNLKWQTVKNSGQKFMIYGLVTVCFQILFAVLMINVLFG"
recorded_value = "failed"

[[record]]
seq = "MSNVVVIAVVLIVASLTGHVSAQMDMSPSSGPSGAPDCMANLMNMTGCLSYVTVGEGGGAAKPDKTCCPALAGLVESSPQCLCYLLSGDMAAQLGIKIDKAKALKLPGVCGVITPDPSLCSLFGIPVGAPVAMGDEGASPAYAPGSMSGAESPGGFGSGPSASRGSDAPSSAPYSLFLNLIIFPLAFAFYIFC"
recorded_value = "failed"

[[record]]
seq = "MSRVAPRDSAAQAASAVAESVRYQGRKASRQGSEQRRQAILDAAMRLIVRDGVRAVRHRAVAAEAQVPLSATTYYFKDIDDLITDTFALFVERNAEALSAFWSSVEGDLQEMAAVLADDPGARGSLVERIVELAVQYVQVQLTERREHLLAEQAFRQEALLNPRLRELADAHQRILSLGAVHFFQVLGSGQPEQDAKVLTSIILQMEYQGLVDGVEQLAVDEMRAILRRYLNLVMGL"
recorded_value = "not failed"

[[record]]
seq = "MSPDSCPLVKNILLLDSEGKRVAVKYYSDDWPTNAAKLSFEKYVFSKTSKTNARTEAEITLLDSNIIVYKFAQDLHFFVTGGENENELILASVLQGFFDAVALLLRSNVEKMEALENLDLIFLCLDEMVDQGVVLETDPNVIAGKVAMQSTEASGSLSEQTLTQALATAREHLARSLLT"
recorded_value = "failed"

[[record]]
seq = "MDAREWAMLIALSLLWGGSFFFIGVAVKELPPVTIVTLRVSLAAVALLVVCRIMGLRLPREWAVWRAFFGMGLLNNIIPFCLIVWGQTQIASGLASILNATTPLFTVIVAHFLTADEKMTGNKLAGVLIGFVGVATMIGPAAFGGSSGLWGQIAILGAAISYSFAGIFGRRFKAMGVPPLMTATGQISSSTLMLIPAALLIDKPWTLAMPGLGTWGALIGIALLSTALAYLIFFRILASAGATNLALVTFLIPVSAILLGSLILGEQLEIKHFAGMAMIAAGLAAIDGRLPVKLRSLLRNAPA"
recorded_value = "failed"


---

- Experiment Description: label from the status in PepcDB records
Recorded Metric: protein production

[[record]]
seq = "MPELPEVETTRRRLRPLVLGQTLRQVVHRDPARYRNTALAEGRRILEVDRRGKFLLFALEGGVELVAHLGMTGGFRLEPTPHTRAALVLEGRTLYFHDPRRFGRLFGVRRGDYREIPLLLRLGPEPLSEAFAFPGFFRGLKESARPLKALLLDQRLAAGVGNIYADEALFRARLSPFRPARSLTEEEARRLYRALREVLAEAVELGGSTLSDQSYRQPDGLPGGFQTRHAVYGREGLPCPACGRPVERRVVAGRGTHFCPTCQGEGP"
recorded_metric = "protein production"
recorded_value = "not failed"

[[record]]
seq = "MLYDLTVVQFSKMLKNLNAIFDKAEAFAELKKVDMDVLLNSRLAADQFNLIRQVQIACDTAKVGVARLTGQLETAPKHDDSETTLAELRQRIASVLTYLEGFSEADFANAATIQISQPRWQGKYLTGYEFAIEHAIPNLYFHITTAYGILRHNGVEVGKKDYLGAMPYKAPIL"
recorded_metric = "protein production"
recorded_value = "not failed"

[[record]]
seq = "MINMTRKLYYEDAYLKEAKGRVLEIRDNAILLDQTIFYPTGGGQPHDRGTINGVEVLDVYKDEEGNVWHVVKEPEKFKVGDEVELKIDWDYRYKLMRIHTGLHLLEHVLNEVLGEGNWQLVGSGMSVEKGRYDIAYPENLNKYKEQIISLFNKYVDEGGEVKIWWEGDRRYTQIRDFEVIPCGGTHVKDIKEIGHIKKLKRSSIGRGKQRLEMWLE"
recorded_metric = "protein production"
recorded_value = "not failed"

[[record]]
seq = "MSLAARLIRSSRSNTFGIITDYVSTTPYSVDIVRGIQDWANANGKTILIANTGGSSEREVEIWKMFQSHRIDGVLYVTMYRRIVDPESGDVSIPTVMINCRPQTRELLPSIEPDDYQGARDLTRYLLERGHRRIGYIRLNPILLGAELRLDAFRRTTSEFGLTENDLSISLGMDGPVGAENNYVFAAATEMLKQDDRPTAIMSGNDEMAIQIYIAAMALGLRIPQDVSIVGFDDFRTVTMALKPELTTAALPYYDLGREGAKWLNDLIAGEKIYPGSRVVSCKLVERSSAAFGEGHHHHHH"
recorded_metric = "protein production"
recorded_value = "not failed"

[[record]]
seq = "MELLCIDYLGKPLRLEGTMAGWQQLFWDNILVAQRPAQEQYEGDIQHHFQLTQGEHVLECCLEIALTWQPFQLQYQTKLNGELVAQGMRSEKDVERQTPYEAPKVERRFSVIGLVSLAMKALKSAKMIKVVMASASLAAYSWLFSFQFALALIGCLVFHEYGHVRAMKYFGMKTKGIYLVPFLGGLALSDEKINTRWQDVVISIMGPCFGFLLSLLLVGVYWVTDSPFWAALAVFNAFLNLFNLLPVLPLDGGHILKSVSFSMNSKMGVILCVLAILGGIALSYSLGLTLFGFLLLMGALDIVFEWRQRHHSHLLPLNRYAQMVSTIWYFALVSGLIAIIIGFASTGDTLLSLPLLILGT"
recorded_metric = "protein production"
recorded_value = "failed"

[[record]]
seq = "MDLLIALLPALFWGSVVLINVLVGGGPYNQIRGTTLGTLIIGIILLLTGNAKFDDLAVIIVGLISGAFWALGQGYQLKSISLIGVSKTMPISTGLQLVGTTLFSAIFLGEWSTGIQVTLGLVAMVLLVIGIALTSIKGKNEASGGNNKFGKAIPILIISTVGYVVYVVVAQIFGVDGMNALFFQSIGMAIGGLILSAKHETSVKSTMWNIIPGVIWGIGNLFMFYSQPKVGVATSFSFSQLLVIVSTLGGIFLLGERKDKRQMIGIWAGIVLIIIAAFILGNLKG"
recorded_metric = "protein production"
recorded_value = "failed"

[[record]]
seq = "MECPFVSVVVGIRNEERYIEECIESLLRLDYPQDSYEIIIVDGMSTDRTRELVQKYPVRLLLNERKNVAAARNLGVQNSMGDFVAFTDGDCKADPLWLKTLVTEMKNAPEDVVCVGGPNLIFDTDPVFGRVVGHAQETFLGSGGSAQSKNSLKKHYVSSLPNCNAMYKKNTIIEAGYFDERFVVGQDGDLNYRINKKGYKFLYIPEAIVLHHRRGTLKSFSVRMFKYGMWMGELFKKHGELVRWYAILPSVAILFSVFSLIISPVYTTPIIVLLLMGFLYLILVFIASIQVIFKMKSKYGLYALVVIPVQHITYGMGFLYSFANSLYKSKGVSSSIVQN"
recorded_metric = "protein production"
recorded_value = "failed"

[[record]]
seq = "MRVVALVPGGIGDQILFFPTLDDLKRYYPNAQLDVVVEPRSKAAYRVSKSVNDILTFDYKDRNSLADWGNLVGTIRDREYDVVITVGQSWLVGLFLWLTGIPTRIGYQGKGRSFLTKTVPFKPSQYAAAVYHDLLAPIGITTPTPELAVNVPKPDIDWANSEQKRLGVNETGYVLIYGGSSWVSQPQALETIYPAENWQEIIQDFRQKQPDLPVVVIQGPDDEQFVRSLRDYSLDIKVTSPDNVGKLTAMIAGANLMLTTDSAPLHLSVAVQTYTIALFGSTDPVKLLPNSDKLLGIKSSTGRVADILPKAVLEKVWGGLEHHHHHH"
recorded_metric = "protein production"
recorded_value = "not failed"

[[record]]
seq = "MAAMPKPAAFWNDRFANEEYVYGEAPNRFVASAARTWLPEAGEVLLLGAGEGRNAVHLAREGHTVTAVDYAVEGLRKTERLATEAGVEVEAIQADVREWKPARAWDAVVVTFLHLPADERPGLYRLVQRCLRPGGRLVAEWFRPEQRTDGYTSGGPPDPAMMVTADELRGHFAEAGIDHLEAAEPTLDEGMHRGPAATVRLVWCRPSTSLEHHHHHH"
recorded_metric = "protein production"
recorded_value = "not failed"

[[record]]
seq = "MKIFRNPPLVMSGLTLGLFALGNLLKLYHPSLRHLLSIIALLLYLFLILSILKNLSQALEQIKHPLIASIFPTFFMSGMLLAGYIQTFPFLEDWVTLISLTIWWLAFLGNAGLIAYFTIKFVIPFHWEHVFPSWSVLYVGIAVATLTAPISGQYILGQIIFWTCLLLTLLILPLMTIKAYCIGLPETAKPNICTFCAPLSLLLAGYLKTFPPEQSPNTNFVWLLLLASQLLYFFVVLQLPVLLKREFNPGFSAFTFPFAISATALRSAGSYLHLQLPLFQLLVKLEELLASILVLFILYSYLRFLSKQEDLPSN"
recorded_metric = "protein production"
recorded_value = "failed"

